test_target: calmodulin (Homo sapiens)
protocol: Uncalibrated estimate of conformational entropy of binding from methyl group dynamics of CaM and target domain
Parameters: made in house
assay_setup: free CaM is the reference state
A collection of substances and their measured Δ O^2axis CaM
measured_attribute: Δ O^2axis CaM

substance | measured_attribute | measurement
(COOH-FPNGFSRKRLMSKVLIVTTWSPLL [CaMKKα(p)] | Δ O^2axis CaM | 0.096
AKSKWKQAFNATAVVRHMRKLQ (listed as Homo sapiens) [CaMKI(p)] | Δ O^2axis CaM | 0.107
KRRAIGFKKLAEAVKFSAKLMGQ [nNOS(p)] | Δ O^2axis CaM | 0.049
RKKTFKEVANAVKISASLMG [eNOS(p)] | Δ O^2axis CaM | 0.081

----------
test_target: calmodulin (Homo sapiens)
protocol: NMR relaxation: backbone dynamics (order parameters) of calmodulin in complex with target domains
assay_setup: average ± standard deviation, N—H bond vectors of calmodulin in complex, 35° C.

substance | <O^2NH>
QTEKMWQRLKGILRSLVKQ [PDE(p)] | 0.92
(COOH-FPNGFSRKRLMSKVLIVTTWSPLL [CaMKKα(p)] | 0.93
AKSKWKQAFNATAVVRHMRKLQ (listed as Homo sapiens) [CaMKI(p)] | 0.94
KRRAIGFKKLAEAVKFSAKLMGQ [nNOS(p)] | 0.92

----------
test_target: calmodulin (Homo sapiens)
protocol: Populations of J, α, ω motional classes of calmodulin methyl O^2axis distributions in the complexes
assay_setup: percentage of counts in class (number of observations), O^2axis above 0.7
Reported % ω by item:

substance | % ω (%)
RKKTFKEVANAVKISASLMG [eNOS(p)] | 33
KRRAIGFKKLAEAVKFSAKLMGQ [nNOS(p)] | 30
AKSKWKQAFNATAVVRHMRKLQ (listed as Homo sapiens) [CaMKI(p)] | 32
(COOH-FPNGFSRKRLMSKVLIVTTWSPLL [CaMKKα(p)] | 35
QTEKMWQRLKGILRSLVKQ [PDE(p)] | 20

----------
test_target: calmodulin (Homo sapiens, UniProt P0DP23)
protocol: Populations of J, α, ω motional classes of calmodulin methyl O^2axis distributions in the complexes
assay_setup: percentage of counts in class (number of observations), O^2axis 0.5 to 0.7
measured_attribute: % α (%)

substance | measurement
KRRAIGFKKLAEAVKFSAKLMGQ [nNOS(p)] | 25
(COOH-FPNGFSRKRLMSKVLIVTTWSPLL [CaMKKα(p)] | 30
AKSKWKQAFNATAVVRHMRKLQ (listed as Homo sapiens) [CaMKI(p)] | 30
RKKTFKEVANAVKISASLMG [eNOS(p)] | 30
QTEKMWQRLKGILRSLVKQ [PDE(p)] | 33

----------
test_target: calmodulin (Homo sapiens, UniProt P0DP23)
protocol: Change in conformational entropy of calmodulin on binding a target domain, estimated from methyl O^2axis (harmonic oscillator model)
assay_setup: classical entropy, slowly interconverting conformers; 308 K
# note: exactly 4 kcal/mol is not below, so it is criterion not met; use criterion met for TSrotamer(slow) strictly under it

substance | category_label
QTEKMWQRLKGILRSLVKQ [PDE(p)] | criterion met
(COOH-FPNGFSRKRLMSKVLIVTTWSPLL [CaMKKα(p)] | criterion met
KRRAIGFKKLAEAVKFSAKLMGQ [nNOS(p)] | criterion not met
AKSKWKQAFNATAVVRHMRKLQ (listed as Homo sapiens) [CaMKI(p)] | criterion met
